tested_system: UniProt P13945
test_description: Homogeneous Time-Resolved Fluorescence (HTRF) cAMP antagonist assay, IC50 determination
experimental_conditions: CHO-K1 cells stably expressing recombinant receptor, isoproterenol at EC90
property_measured: IC50
State the value, then name its unit.

Guide cases for IC50, answers given:
CNS(=O)(=O)c1cccc(OC[C@@H](O)CNC2COC3(CCN(S(=O)(=O)c4cc(C)cc(Br)c4)CC3)C2)c1 (stereo partly drawn) | 0.0253 µM
CNS(=O)(=O)c1cccc(OC[C@@H](O)CN[C@H]2COC3(CCN(S(=O)(=O)c4cnc5[nH]ccc5c4)CC3)C2)c1 | 0.0119 µM
CNS(=O)(=O)c1cccc(OC[C@@H](O)CNC2COC3(CCN(S(=O)(=O)c4ccsc4)CC3)C2)c1 (stereo partly drawn) | 0.0397 µM
CCn1cc(S(=O)(=O)N2CCC3(CC2)C[C@@H](NC[C@H](O)COc2cccc(S(=O)(=O)NC)c2)CO3)c(=O)c2ccc(F)cc21 | 0.053 µM

List reported IC50 for each of these molecules:
1. CNS(=O)(=O)c1cccc(OC[C@@H](O)CNC2COC3(CCN(S(=O)(=O)c4ccc(C#N)c(Cl)c4)CC3)C2)c1 (stereo partly drawn)
2. CNS(=O)(=O)c1cccc(OC[C@@H](O)CN[C@H]2COC3(CCN(S(=O)(=O)c4ccc5c(c4)C(=O)C(=O)N5)CC3)C2)c1

*A*
["0.0223 µM", "0.117 µM"]

====

tested_system: Beta-3 Adrenergic Receptor (Homo sapiens (Human), UniProt P13945)
Sequence (P13945 whole entry, species assumed): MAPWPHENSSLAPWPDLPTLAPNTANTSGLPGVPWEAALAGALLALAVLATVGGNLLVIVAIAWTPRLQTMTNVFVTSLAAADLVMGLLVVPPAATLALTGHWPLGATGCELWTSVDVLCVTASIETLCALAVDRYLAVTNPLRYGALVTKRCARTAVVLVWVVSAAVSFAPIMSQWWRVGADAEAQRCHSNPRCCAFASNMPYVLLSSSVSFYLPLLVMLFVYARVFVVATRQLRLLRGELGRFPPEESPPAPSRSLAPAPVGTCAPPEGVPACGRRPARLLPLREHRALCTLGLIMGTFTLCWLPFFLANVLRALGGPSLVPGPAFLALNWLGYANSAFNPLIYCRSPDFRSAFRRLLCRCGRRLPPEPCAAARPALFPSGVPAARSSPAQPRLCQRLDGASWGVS
test_description: Homogeneous Time-Resolved Fluorescence (HTRF) cAMP antagonist assay, IC50 determination
experimental_conditions: CHO-K1 cells stably expressing recombinant receptor, isoproterenol at EC90
Method: HTRF cAMP assays were performed according to manufacturer's instructions (Cisbio, cAMP Dynamic 2 Assay Kit; #62AM4PEJ). CHO-K1 cells stably expressing recombinant receptor were harvested and suspended in warm PBS to make a 300,000 cells/mL stock. […] Compounds were dissolved and serially diluted (5-fold) in DMSO to generate a 10-point dose response stock. […] The EC90 for isoproterenol, a beta-adrenergic agonist, was determined in separate experiments using standard methods to measure agonist potencies. […]
Consider the following compounds; for each one, report its pIC50.
Numbers only, as −log10 of the molar value.

CNS(=O)(=O)c1cccc(OC[C@@H](O)CN[C@@H]2COC3(CCN(S(=O)(=O)c4cc(C)ccc4F)CC3)C2)c1 | 7.91
CCOc1ccc(S(=O)(=O)N2CCC3(CC2)CC(NC[C@H](O)COc2cccc(S(=O)(=O)NC)c2)CO3)cn1 (stereo partly shown) | 7.52
CNS(=O)(=O)c1cccc(OC[C@@H](O)CN[C@H]2COC3(CCN(S(=O)(=O)c4cncc(-c5ccc(CN)cc5)c4)CC3)C2)c1 | 7.60

List reported pIC50 for each of these compounds:
1. CCn1cc(S(=O)(=O)N2CCC3(CC2)C[C@@H](NC[C@H](O)COc2cccc(S(N)(=O)=O)c2)CO3)c(=O)c2ccc(F)cc21
2. CNS(=O)(=O)c1cccc(OC[C@@H](O)CNC2COC3(CCN(S(=O)(=O)c4cc(-c5ccc(CN)cc5)ccc4Cl)CC3)C2)c1 (stereo partly shown)
3. CNS(=O)(=O)c1cccc(OC[C@@H](O)CNC2COC3(CCN(S(=O)(=O)c4ccc5cc(Cl)ccc5c4)CC3)C2)c1 (stereo partly shown)
4. CNS(=O)(=O)c1cccc(OC[C@@H](O)CN[C@H]2COC3(CCN(S(=O)(=O)c4cnc5c(Cl)cn(C)c5c4)CC3)C2)c1
5. CNS(=O)(=O)c1cccc(OC[C@@H](O)CN[C@H]2COC3(CCN(S(=O)(=O)c4cccc5nsnc45)CC3)C2)c1
6. CNS(=O)(=O)c1cccc(OC[C@@H](O)CNC2COC3(CCN(S(=O)(=O)c4cccc(-c5cnc(OC)nc5)c4)CC3)C2)c1 (stereo partly shown)
7. CNS(=O)(=O)c1cccc(OC[C@@H](O)CNC2COC3(CCN(S(=O)(=O)c4ccc(Br)c(C)c4)CC3)C2)c1 (stereo partly shown)
8. CNS(=O)(=O)c1cccc(OC[C@@H](O)CN[C@H]2COC3(CCN(c4nccc(C)n4)CC3)C2)c1

*A*
1. 7.18
2. 7.72
3. 7.41
4. 8.04
5. 7.81
6. 7.87
7. 8.32
8. 6.67

List reported pIC50 for each of these compounds:
1. CCN1CCC(NS(=O)(=O)c2cccc(OC[C@@H](O)CNC3COC4(CCN(S(=O)(=O)c5ccc6ccccc6c5)CC4)C3)c2)CC1 (stereo partly shown)
2. CNS(=O)(=O)c1cccc(OC[C@@H](O)CN[C@H]2COC3(CCN(S(=O)(=O)c4cccc(-c5cccnc5)c4)CC3)C2)c1

*A*
1: 6.51; 2: 7.60
